Quick reference for inhibition among some molecules
- Target system: Serine/threonine-protein kinase Chk2 (Homo sapiens) (UniProt O96017);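 also: reported value is the mean inhibition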
- Sequence (O96017 whole entry): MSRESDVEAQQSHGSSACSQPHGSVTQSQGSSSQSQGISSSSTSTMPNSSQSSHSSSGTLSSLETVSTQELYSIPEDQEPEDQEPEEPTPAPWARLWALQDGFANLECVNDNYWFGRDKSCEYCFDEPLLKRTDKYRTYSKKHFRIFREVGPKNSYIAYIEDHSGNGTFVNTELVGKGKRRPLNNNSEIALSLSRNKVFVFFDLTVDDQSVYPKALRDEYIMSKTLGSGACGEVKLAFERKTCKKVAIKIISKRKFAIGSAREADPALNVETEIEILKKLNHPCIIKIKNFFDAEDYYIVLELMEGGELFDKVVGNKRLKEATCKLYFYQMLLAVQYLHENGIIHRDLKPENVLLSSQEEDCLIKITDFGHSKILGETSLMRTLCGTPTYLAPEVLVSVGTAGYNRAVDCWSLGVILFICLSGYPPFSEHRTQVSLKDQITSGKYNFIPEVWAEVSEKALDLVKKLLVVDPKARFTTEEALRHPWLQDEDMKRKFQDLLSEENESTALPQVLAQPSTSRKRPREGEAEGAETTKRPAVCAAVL
- Assay context: at 1 µM
Measured property: inhibition (%)

INSERT INTO results (molecule, target_system, measured_property, measured) VALUES
  ('COc1ccc(-c2nn3ncccc3c2-c2ccnc(Nc3ccc(Cl)c(C(F)(F)F)c3)n2)cc1', 'Serine/threonine-protein kinase Chk2 (Homo sapiens) (UniProt O96017)', 'inhibition', 2.73),
  ('CC1=C(C(=O)Nc2ccc3[nH]ncc3c2)C(c2ccc(F)cc2)NC(=O)N1 (stereo not given)', 'Serine/threonine-protein kinase Chk2 (Homo sapiens) (UniProt O96017)', 'inhibition', 2.29),
  ('CCn1c(-c2nonc2N)nc2c(N3CCCC3)nccc21', 'Serine/threonine-protein kinase Chk2 (Homo sapiens) (UniProt O96017)', 'inhibition', -2.51),
  ('COc1cc(C=NNc2ncnc3c2cnn3-c2ccccc2)ccc1O', 'Serine/threonine-protein kinase Chk2 (Homo sapiens) (UniProt O96017)', 'inhibition', -0.98),
  ('COC(=O)Nc1nc2cc(Oc3cccc(NC(=O)Nc4cc(C(F)(F)F)ccc4F)c3)ccc2[nH]1', 'Serine/threonine-protein kinase Chk2 (Homo sapiens) (UniProt O96017)', 'inhibition', 0.45);

====

- Target system: Vascular endothelial growth factor receptor 2 (Homo sapiens);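 also: each value is the mean percent inhibition of KDR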
- Assay context: at 1 µM
Here, each record is paired with measured inhibition data.
Measured property: inhibition

INSERT INTO assay_data (compound_string, measured) VALUES
  ('O=C1Nc2ccc(C(=O)c3ccco3)cc2C1=Cc1cc(Cl)c(O)c(Cl)c1', '18.7%'),
  ('COc1ccc(-c2coc3ncnc(N)c23)cc1', '9%'),
  ('CCn1c(-c2nonc2N)nc2cnc(Oc3cccc(NC(=O)c4ccc(OCCN5CCOCC5)cc4)c3)cc21', '7.83%'),
  ('CCCN1CCC(Oc2cc(Nc3nc(Nc4cccc(F)c4C(N)=O)c4cc[nH]c4n3)c(OC)cc2Cl)CC1', '18.5%'),
  ('Nc1ncnc2occ(-c3ccc(NC(=O)Nc4cccc(C(F)(F)F)c4)cc3)c12', '77.3%'),
  ('Nc1nc(-c2ccccn2)c(-c2ccc3ncccc3n2)s1', '8.02%'),
  ('Nc1nc(-c2ccc3c(c2)C(=Cc2cc(Br)c(O)c(Br)c2)C(=O)N3)cs1', '11.3%'),
  ('COc1cc2ncn(-c3cc(O[C@H](C)c4ccccc4Cl)c(C(N)=O)s3)c2cc1OC', '72.5%');

====

- Tested on: Mast/stem cell growth factor receptor Kit (Homo sapiens), P10721 [V560G]
- Sequence (P10721 whole entry V560G): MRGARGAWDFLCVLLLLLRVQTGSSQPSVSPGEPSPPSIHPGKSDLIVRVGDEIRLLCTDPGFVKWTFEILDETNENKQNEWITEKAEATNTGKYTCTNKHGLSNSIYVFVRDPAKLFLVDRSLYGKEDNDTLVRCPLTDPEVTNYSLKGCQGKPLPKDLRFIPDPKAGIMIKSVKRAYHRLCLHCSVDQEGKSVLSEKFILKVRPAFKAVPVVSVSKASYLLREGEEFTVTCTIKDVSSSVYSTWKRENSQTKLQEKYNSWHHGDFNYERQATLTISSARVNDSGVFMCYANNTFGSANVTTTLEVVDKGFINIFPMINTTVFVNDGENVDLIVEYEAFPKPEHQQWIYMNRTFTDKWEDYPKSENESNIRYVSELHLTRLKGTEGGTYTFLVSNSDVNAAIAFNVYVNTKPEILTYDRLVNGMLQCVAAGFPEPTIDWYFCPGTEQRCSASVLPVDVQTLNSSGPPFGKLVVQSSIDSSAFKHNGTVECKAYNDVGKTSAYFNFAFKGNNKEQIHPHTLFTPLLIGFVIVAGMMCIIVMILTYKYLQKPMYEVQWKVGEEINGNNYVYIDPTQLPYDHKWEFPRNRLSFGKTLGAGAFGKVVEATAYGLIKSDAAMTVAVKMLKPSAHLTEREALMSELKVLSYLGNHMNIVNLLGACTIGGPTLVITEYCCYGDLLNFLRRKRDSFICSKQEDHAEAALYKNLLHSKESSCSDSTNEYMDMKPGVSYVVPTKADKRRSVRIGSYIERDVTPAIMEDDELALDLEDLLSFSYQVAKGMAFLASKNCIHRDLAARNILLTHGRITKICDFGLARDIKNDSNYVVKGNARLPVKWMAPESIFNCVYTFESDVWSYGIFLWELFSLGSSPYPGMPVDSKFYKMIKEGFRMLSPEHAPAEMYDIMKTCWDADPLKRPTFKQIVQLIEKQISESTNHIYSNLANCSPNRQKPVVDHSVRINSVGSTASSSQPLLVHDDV
- Assay context: at 0.1 µM
Measured property: inhibition (%)

INSERT INTO assay_data (compound_string, measured) VALUES
  ('Nc1nc(-c2ccc3c(c2)C(=Cc2cc(Br)c(O)c(Br)c2)C(=O)N3)cs1', 3.52),
  ('CS(=O)(=O)CCNCc1ccc(-c2ccc3ncnc(Nc4ccc(OCc5ccccc5)c(Cl)c4)c3c2)o1', 7.05),
  ('COc1cc2c(cc1Nc1nc(N3CCc4ccccc43)c3cc[nH]c3n1)N(C(=O)CN(C)C)CC2', 0.64),
  ('COc1cc2ncn(-c3cc(O[C@@H](C)c4ccccc4Cl)c(C(N)=O)s3)c2cc1OC', 4.09),
  ('Cc1nn(C)c2cc(N(C)c3ccnc(Nc4cccc(S(N)(=O)=O)c4)n3)ccc12', 4.37),
  ('O=C1NC(=O)C(N2CCc3ccccc32)=C1c1ccc(Cl)cc1', 7),
  ('CCCN1CCC=C(c2ccc(Nc3nc(Nc4ccccc4C(N)=O)c4cc[nH]c4n3)c(C)c2)C1', -4.87),
  ('COC(=O)Nc1nc2cc(Oc3cccc(NC(=O)Nc4cc(C(F)(F)F)ccc4F)c3)ccc2[nH]1', 4.04),
  ('Cc1ccc(NC(=O)c2ccnc(N3CCCC3)c2)cc1-c1ccc(C(=O)NCC2CC2)cc1', 0.26);

====

- Target system: MAP kinase-activated protein kinase 2 (Homo sapiens);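 also: values are mean inhibition from the GSK PKIS screen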
- Assay context: at 1 µM
# key: entry, value: inhibition
Measured property: inhibition (%)

INSERT INTO measurements (compound_string, readout_unit, measured) VALUES
  ('COc1cccc(-n2ncc3c(N/N=C/c4cccc(F)c4)ncnc32)c1', '%', 0.02),
  ('COc1cc2ncn(-c3cc(OCc4ccccc4C(F)(F)F)c(C(N)=O)s3)c2cc1OC', '%', 1.47),
  ('CN(C)c1cc2c(Nc3ccc4nc(Cc5ccccc5)[nH]c4c3)ncnc2cn1', '%', 2.85),
  ('COc1ccc(-c2ccncc2)cc1C(N)=O', '%', 6.42),
  ('Nc1nc(-c2ccccn2)c(-c2ccc3ncccc3n2)s1', '%', 2.02),
  ('CS(=O)(=O)CCNCc1nc(-c2ccc3ncnc(Nc4ccc(F)c(Cl)c4)c3c2)cs1', '%', 0.26),
  ('CCN1CCC(CC(=O)Nc2n[nH]c3nc(-c4cccs4)c(Br)cc23)CC1', '%', -2.04),
  ('COC(=O)Nc1nc2cc(Oc3cccc(NC(=O)Nc4cc(C(F)(F)F)ccc4F)c3)ccc2[nH]1', '%', -0.64),
  ('CCn1c(-c2nonc2N)nc2c(C#CC(C)(C)O)nc(CN3CCCC3)cc21', '%', -0.42),
  ('Cc1cc(O)cc(C)c1/C=C/c1cncc(-c2nn[nH]n2)c1', '%', 1.49);

====

- Target system: Mitogen-activated protein kinase 1 (Homo sapiens);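 also: values are mean inhibition, from the GSK PKIS collection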
- Assay context: at 1 µM
Measured property: inhibition (%)

INSERT INTO measurements (molecule, readout_unit, measured) VALUES
  ('Cn1cc(C=C2C(=O)Nc3cccnc32)c2ccccc21', '%', 2.73),
  ('CC1=C(C(=O)Nc2ccc3[nH]ncc3c2)C(c2ccc(F)cc2)NC(=O)N1 (centres undefined)', '%', 4.83),
  ('CS(=O)(=O)CCN(CC#N)Cc1ccc(-c2ccc3ncnc(Nc4ccc(OCc5cccc(F)c5)c(Cl)c4)c3c2)o1', '%', 1.9),
  ('COc1ccc(COc2ccc(Cc3cnc(N)nc3N)cc2OC)cc1', '%', -0.13),
  ('CC(C)=Cc1cccc2c1/C(=N/Nc1ccc(S(N)(=O)=O)cc1)C(=O)N2', '%', 0.78),
  ('O=C1NC(=O)C(c2ccc(Cl)cc2)=C1Nc1ccc(Cl)c(C(=O)O)c1', '%', -5.59),
  ('[O-][S+]1CCN(Cc2ccc(-c3ccc4ncnc(Nc5ccc(OCc6ccccc6)c(F)c5)c4c3)o2)CC1', '%', 2.92),
  ('Fc1cccc(COc2ccc(Nc3ncnc4cc(-c5ccc[nH]5)sc34)cc2Cl)c1', '%', 4.2),
  ('Nc1ncnc2occ(-c3ccc(NC(=O)Nc4cc(C(F)(F)F)cc(C(F)(F)F)c4)cc3)c12', '%', 1.95);

====

- Target system: Receptor tyrosine-protein kinase erbB-2 (Homo sapiens);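 also: each value is the mean percent inhibition of ERBB2 over replicate measurements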
- Assay context: at 0.1 µM
inhibition values by entry
Measured property: inhibition

INSERT INTO results (compound, target_system, measured_property, measured) VALUES
  ('O=C1NC(=O)C(c2ccc(Cl)cc2)=C1Nc1ccc(Cl)c(C(=O)O)c1', 'Receptor tyrosine-protein kinase erbB-2 (Homo sapiens)', 'inhibition', '-2.94%'),
  ('Nc1ncnc2occ(-c3ccc(NC(=O)Nc4cc(C(F)(F)F)cc(C(F)(F)F)c4)cc3)c12', 'Receptor tyrosine-protein kinase erbB-2 (Homo sapiens)', 'inhibition', '-1.28%'),
  ('COC(=O)Nc1nc2cc(Oc3cccc(NC(=O)Nc4cc(C(F)(F)F)ccc4F)c3)ccc2[nH]1', 'Receptor tyrosine-protein kinase erbB-2 (Homo sapiens)', 'inhibition', '-1.15%'),
  ('CS(=O)(=O)CCNCc1ccc(-c2ccc3ncnc(Nc4ccc(OCc5ccccc5)c(Cl)c4)c3c2)o1', 'Receptor tyrosine-protein kinase erbB-2 (Homo sapiens)', 'inhibition', '21.5%'),
  ('CCn1c(-c2nonc2N)nc2c(N3CCCC3)nccc21', 'Receptor tyrosine-protein kinase erbB-2 (Homo sapiens)', 'inhibition', '-5.46%'),
  ('[O-][S+]1CCN(Cc2ccc(-c3ccc4ncnc(Nc5ccc(OCc6ccccc6)c(F)c5)c4c3)o2)CC1', 'Receptor tyrosine-protein kinase erbB-2 (Homo sapiens)', 'inhibition', '20.4%'),
  ('CN(C)c1cc2c(Nc3ccc4nc(Cc5ccccc5)[nH]c4c3)ncnc2cn1', 'Receptor tyrosine-protein kinase erbB-2 (Homo sapiens)', 'inhibition', '20%'),
  ('COc1ccccc1Nc1ncc(-c2ccccc2)o1', 'Receptor tyrosine-protein kinase erbB-2 (Homo sapiens)', 'inhibition', '0.38%'),
  ('Fc1cccc(COc2ccc(Nc3ncnc4sc(-c5cccs5)cc34)cc2Cl)c1', 'Receptor tyrosine-protein kinase erbB-2 (Homo sapiens)', 'inhibition', '1.07%'),
  ('COc1cc(C=NNc2ncnc3c2cnn3-c2ccccc2)ccc1O', 'Receptor tyrosine-protein kinase erbB-2 (Homo sapiens)', 'inhibition', '1.75%'),
  ('Cc1nnc(-c2ccc(C)c(-c3ccc(C(=O)Nc4cccc(C#N)c4)cc3)c2)o1', 'Receptor tyrosine-protein kinase erbB-2 (Homo sapiens)', 'inhibition', '2.71%'),
  ('O=C1Nc2ccc(C(=O)c3ccco3)cc2C1=Cc1cc(Cl)c(O)c(Cl)c1', 'Receptor tyrosine-protein kinase erbB-2 (Homo sapiens)', 'inhibition', '0.77%'),
  ('CC1=C(C(=O)Nc2ccc3[nH]ncc3c2)C(c2ccc(Cl)c(Cl)c2)CC(=O)N1 (stereo not given)', 'Receptor tyrosine-protein kinase erbB-2 (Homo sapiens)', 'inhibition', '0.3%'),
  ('NC(=O)c1cccc(Nc2nccc(Nc3cccc4[nH]ncc34)n2)c1', 'Receptor tyrosine-protein kinase erbB-2 (Homo sapiens)', 'inhibition', '-4.62%'),
  ('CN1CCC(C(=O)Nc2n[nH]c3nnc(-c4ccccc4)cc23)CC1', 'Receptor tyrosine-protein kinase erbB-2 (Homo sapiens)', 'inhibition', '5.08%'),
  ('CCCN1CCC(Oc2cc(Nc3nc(Nc4cccc(F)c4C(N)=O)c4cc[nH]c4n3)c(OC)cc2Cl)CC1', 'Receptor tyrosine-protein kinase erbB-2 (Homo sapiens)', 'inhibition', '0.9%'),
  ('c1cnn2ncc(-c3ccnc(Nc4ccc5c(c4)OCCO5)n3)c2c1', 'Receptor tyrosine-protein kinase erbB-2 (Homo sapiens)', 'inhibition', '1.94%'),
  ('COc1ccc(-c2nn3ncccc3c2-c2ccnc(Nc3ccc(Cl)c(C(F)(F)F)c3)n2)cc1', 'Receptor tyrosine-protein kinase erbB-2 (Homo sapiens)', 'inhibition', '3.66%'),
  ('CCn1c(-c2nonc2N)nc2cncc(C(=O)N3CCNCC3)c21', 'Receptor tyrosine-protein kinase erbB-2 (Homo sapiens)', 'inhibition', '38.2%'),
  ('O=C1NC(=O)C(c2cccc(Cl)c2)=C1Nc1ccc(O)c(Cl)c1', 'Receptor tyrosine-protein kinase erbB-2 (Homo sapiens)', 'inhibition', '0.29%');
